Tested on: HCC-2998 colon
assay: NCI-60 one-dose screen, 48 h
assay_context: 10 µM unless noted
This is part of a sample that, as a whole, favours compounds with a hit. Of some 83,000 tested, about 20% had one in any assay. The source made the active and inactive calls. How the source made its calls: active means growth percent below 10; inactive means the rest.
Respond using exactly one of the listed classes: true (active), false (inactive)

Worked cases, answers included:
c1ccc2c(c1)[nH]c1c2cc[n+]2cc3c(cc12)CCCC3    false
COc1cc(/C=C/c2nnc(-c3cc(-c4ccccc4)n[nH]3)o2)cc(OC)c1OC    false
CCOC(=O)c1cc(-c2cccnc2)nc2c(Cl)cc(Cl)cc12    false
CC(C)(C)c1ccc(C(O)CCCN2CCC(C(O)(c3ccccc3)c3ccccc3)CC2)cc1 (centres undefined)    true
O=C(CSCC(=O)N/N=C/c1ccccc1O)N/N=C\c1ccccc1O    false

stdin: Look up the recorded call for CCCCn1c(Cc2ccc(Cl)cc2)nc2cc(OC)c(OC)cc2c1=O in this test.
stdout: false

stdin: Look up the recorded call for NC(N)=NC(N)=NCCCc1ccccc1 in this test.
stdout: false

stdin: Look up the recorded call for CSc1nc2c(c(=O)[nH]1)C(c1ccc(Cl)cc1)C1=C(N2)/C(=C/c2ccc(Cl)cc2)CNC1 (centres undefined) in this test.
stdout: false

stdin: Look up the recorded call for CCC1=C(c2ccc(OC)cc2)C(C)(C)Oc2cc(O)c(CN3CCCC3)cc21 in this test.
stdout: false

stdin: Look up the recorded call for CCOC(=O)c1c(C)nc(C)c(C(=O)OCC)c1-c1cccnc1 in this test.
stdout: false

stdin: Look up the recorded call for CCOc1ccccc1C(=O)OCC(=O)Nc1cccc(S(=O)(=O)N(C)C)c1 in this test.
stdout: false

stdin: Look up the recorded call for Clc1ccc(-n2cnc3c(Cl)ncnc32)cc1Cl in this test.
stdout: true

stdin: Look up the recorded call for COc1ccc(OC)c2c1[nH]c(=O)c1c3ccccc3cn21 in this test.
stdout: true

stdin: Look up the recorded call for Cc1c(C(N)=O)sc2nc(SCC(=O)Nc3ccc(Cl)cc3)n(-c3ccccc3)c(=O)c12 in this test.
stdout: false
